ASSAY_NOTES: TIMS collisional cross section (CCS, N2) of the lipid ion; higher = larger ion cross section
TEST_CONDITIONS: sample type: HeLa; ionization mode: positive; one isomer drawn
# TIMS collisional cross section annotations
Write down the numeric answer in Å² and omit the unit.

Examples with answers:
CCCCCCCC/C=C/CCCCCCCC(=O)OC[C@H](COP(=O)(O)OCCN)OC(=O)CCCCCCC/C=C/CCCCCCCC [PE 18:1_18:1] (ion (formula + adduct): [C41H78NO8P+Na] 1+): 279.7
CC/C=C\C/C=C\C/C=C\C/C=C\C/C=C\CCCC(=O)O[C@H](COC(=O)CCCCCCCCCCCCCC)COP(=O)([O-])OCC[N+](C)(C)C [PC 15:0@_20:5] (ion (formula + adduct): [C43H76NO8P+H] 1+): 282.3
CCCCCCCC/C=C\CCCCCCCCCCCCCCCC(=O)N[C@@H](CO)[C@H](O)/C=C/CCCCCCCCCCCCC [Cer d18:1_26:1@] (ion (formula + adduct): [C44H85NO3+H] 1+): 284.9
CCCCC/C=C\C/C=C\C/C=C\CCCCC(=O)O[C@H](COC(=O)CCCCCCCCCCCCCC)COP(=O)([O-])OCC[N+](C)(C)C [PC 15:0@_18:3] (ion (formula + adduct): [C41H76NO8P+H] 1+): 279.7

Requested field: TIMS collisional cross section. Item: CCCCC/C=C\C/C=C\C/C=C\CCCCCCCCC(=O)OC[C@@H](COC(=O)CCCCCCCCCCCCCCCCC)OC(=O)CCCCCCC/C=C\CCCCCCCC [TG 18:0_18:1_22:3] (ion (formula + adduct): [C61H110O6+NH4] 1+)
336.5
